Biological target: T1, hPRLR.mFc (soluble dimeric human PRLR) (Homo sapiens, UniProt P16471)
T1 construct: dimeric (hPRLR.mFc)
T1 sequence (P16471 with tags, fused parts or gaps): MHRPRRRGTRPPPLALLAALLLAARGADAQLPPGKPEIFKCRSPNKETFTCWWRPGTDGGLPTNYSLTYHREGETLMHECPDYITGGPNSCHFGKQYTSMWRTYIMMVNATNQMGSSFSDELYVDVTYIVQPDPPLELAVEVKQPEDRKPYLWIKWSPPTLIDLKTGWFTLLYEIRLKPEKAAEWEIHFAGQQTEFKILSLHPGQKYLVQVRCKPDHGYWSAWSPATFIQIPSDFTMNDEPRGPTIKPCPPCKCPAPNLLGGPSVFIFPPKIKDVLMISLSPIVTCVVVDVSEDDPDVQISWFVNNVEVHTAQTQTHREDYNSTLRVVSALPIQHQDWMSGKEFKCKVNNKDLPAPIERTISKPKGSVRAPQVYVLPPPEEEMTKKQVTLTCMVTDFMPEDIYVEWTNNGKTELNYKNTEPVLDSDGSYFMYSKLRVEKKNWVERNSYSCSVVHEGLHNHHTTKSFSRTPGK
Assay: Surface plasmon resonance (Biacore T200), mAb-capture format
Format: binding
Settings: 37° C., antibody-capture format, analyte hPRLR.mFc

| molecule | T½ [h] |
| --- | --- |
| H1H6966N: human IgG1 Fc form of H2M6966N; anti-PRLR; HCVR/LCVR SEQ ID NOs 338/346 (antibody, V domains shown, human IgG1 Fc) VH: QVQLVQSGAEVQKPGASVKVSCKVSGYTLTALSIHWVRQAPGKGLEWMGNFDPGDGETIHAQKFQGRVTMTGDTSTDTAYMELSSLRSEDTAVYYCVGVTFDYWGQGTLVTVSS VL: EIVMTQSPATLSVSPGERATLSCRASQSVASNLAWYQQKPGQAPRLLLYGASTRATGIPARFSGSGSGTEFTLTISSLQSEDFALYYCQHYNNWPLTFGGGTKVEIK | 1.52 |
| H1H6781P: anti-PRLR antibody, human IgG1 Fc; HCVR/LCVR SEQ ID NOs 50/58 (antibody, V domains shown, human IgG1 Fc) VH: EVQLVESGGDLVQPGESLRLSCTASGFTFNSYEMNWVRQAPGKGLEWVSYISSSGGTKYYVDSVKGRFTISRDNAKKSLYLQMNSLRADDTALYYCARLNGVDVFDIWGQGTMVTVSS VL: DIQMTQSPSSLSASVGDRVTITCRASQDIFNYLAWFQQKPGKVPELLISAASTLQSGVPSRFSGSGSGTYFTLTISSLQPEDIATYYCQRYNSAPLTFGGGTKVEIK | 1.95 |
